Values compiled from paper PMC12307812.

tested on: SARS-CoV-2 Delta variant AY.1; experiment: microbe, parasite or virus in culture; format: cell-based; conditions: Severe acute respiratory syndrome coronavirus 2, Calu-3, 48 h; read-out: IC50, live SARS-CoV-2 infection AY.1 (Delta)
pIC50: −log10 of the molar value.

>  <molecule>
CN(C)C(=O)COC(=O)Cc1ccc(OC(=O)c2ccc(NC(=N)N)cc2)cc1

>  <pIC50>
7.66

$$$$
>  <molecule>
CC(C)(C)NC(=O)N1CCN(C(=O)N2C(=O)C(CCCNC(=N)N)C2C(=O)O)CC1 (centres unmarked)

>  <pIC50>
8.06

$$$$
